B1: TPR t1 (parent)
chain: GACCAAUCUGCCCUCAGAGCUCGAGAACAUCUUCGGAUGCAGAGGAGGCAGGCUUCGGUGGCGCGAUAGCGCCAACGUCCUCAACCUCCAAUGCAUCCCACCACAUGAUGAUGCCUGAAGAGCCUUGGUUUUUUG

- Variants of: B1
- Measurement notes: polymerase ribozyme fitness, log enrichment relative to wild type (log ratio); higher = more active; in vitro selection for triplet polymerase activity
Measurement name: polymerase ribozyme fitness (log ratio)
Give the figure only, with no unit attached.

Would you please look over these solved cases?
C94U G117U    0.0636
C8A C12A C79U C80U C114U    -4.99
C40U A119G U126G G127U    -0.212
G39A G69U C99A    -4.04
C3A A74C    -2.99
C4G C73A A91U    -3.63

polymerase ribozyme fitness (log ratio) for G36A G127U U133G is -3.26

Entry C70U C82G A118G , polymerase ribozyme fitness (log ratio) reported as -1.41

Lab note: measured polymerase ribozyme fitness (log ratio) of C12U G61A U106A C114A was -0.698

Measured polymerase ribozyme fitness (log ratio) of A50U G71U G127A : -2.67

Measured polymerase ribozyme fitness (log ratio), A26U C62G : -4.89

The measured polymerase ribozyme fitness (log ratio) associated with A43C G63A C114G C123U reads -6.77
